Field: IC50. Provide a value for each of the binders that follow.
# measuredOn: T1, LILRB2-Fc protein (human, UniProt Q8N423 22-460, limits assumed)
# T1 construct: also called human LILRB2-Fc; not shown: Fc part
# test: blocking ELISA, LILRB2-Fc binding to coated monomer HLA-G; Exp II
Note: a bare number is incomplete; add the unit.

B2H4-24 (antibody, V domains shown, Humanized variant, human IgG4 / kappa) VH: EVQLVESGGDLATPGGSLRLSCAVSGFSLSTYAMSWVRQAPGKGLEWVGWIYNDGSTYYAAWAKGRFTISKDTSKTTVYLQMTSLRAEDTALYFCAREGDYIGYFNIWGQGTLVTVSS VL: DIQMTQSPSSVSASVGDRVTITCQASQSIGSNLAWYQQKPGKAPKLLIYAAATLASGVPLRFSGSGSGTDFTLTISNLQPEDSATYYCQSYVSGSSDVAFGGGTKVEIK : 7.5 µg/mL
B2H4-41 (antibody, V domains shown, Humanized variant, human IgG4 / kappa) VH: EVQLLESGGRLVQPGTSLRLSCAVSGFSLSTYAMSWVRQAPGKGLEWIGWIYNDGSTYYAAWAKGRFTISKDTSKTTLYLQMNSLTVEDTATYFCAREGDYIGYFNIWGQGTLVTVSS VL: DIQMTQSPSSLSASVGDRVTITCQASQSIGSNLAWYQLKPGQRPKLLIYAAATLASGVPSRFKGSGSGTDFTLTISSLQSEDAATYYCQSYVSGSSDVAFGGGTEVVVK : 6.76 µg/mL
B2H4-55 (antibody, V domains shown, Humanized variant, human IgG4 / kappa) VH: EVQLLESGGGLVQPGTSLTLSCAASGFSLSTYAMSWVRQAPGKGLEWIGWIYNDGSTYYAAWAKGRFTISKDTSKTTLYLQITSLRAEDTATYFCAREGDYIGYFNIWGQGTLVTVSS VL: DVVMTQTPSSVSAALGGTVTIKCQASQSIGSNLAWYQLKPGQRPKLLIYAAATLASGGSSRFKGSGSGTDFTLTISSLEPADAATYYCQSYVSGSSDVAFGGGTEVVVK : 7.17 µg/mL

Attention now turns to another entry.
Ask: What does the data say about its IC50? Entry: B2H4-45 (antibody, V domains shown, Humanized variant, human IgG4 / kappa) VH: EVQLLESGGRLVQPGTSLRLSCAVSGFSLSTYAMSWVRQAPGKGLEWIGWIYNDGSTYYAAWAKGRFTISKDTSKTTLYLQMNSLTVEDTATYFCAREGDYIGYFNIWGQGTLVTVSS VL: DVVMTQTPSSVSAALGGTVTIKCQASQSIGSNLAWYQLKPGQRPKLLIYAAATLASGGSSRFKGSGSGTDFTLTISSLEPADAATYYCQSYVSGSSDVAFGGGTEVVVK
Reply: 7.12 µg/mL
